Test system: A498 renal
protocol.text: NCI tumour cell line growth inhibition, 48 h

{"compound": "O=c1cccc(C#CC#CC2=CCCCC2)o1", "measured.target": "A498 renal", "GI50": "19.8 µM"}
{"compound": "COc1cc(C(=O)c2cc(C)c3[nH]c4ccc(C)cc4c3c2C)cc(OC)c1OC", "measured.target": "A498 renal", "GI50": "< 0.01 µM"}
{"compound": "Cc1ccc(-c2nc3ccc(Cl)cc3c(=O)n2N2C(=O)CSC2c2ccccc2Cl)cc1 (configuration not stated)", "measured.target": "A498 renal", "GI50": "5.91 µM"}
{"compound": "COc1cccc(C#Cc2ccccc2C#CCCCCO)c1", "measured.target": "A498 renal", "GI50": "10.3 µM"}
{"compound": "CCCCON(OC(=O)c1ccc2ccc3cccc4ccc1c2c34)C(C)=O", "measured.target": "A498 renal", "GI50": "27.7 µM"}
{"compound": "CN(C)C(=O)[C@H](O)[C@H](Cc1ccccc1)NC(=O)c1cc2cc(Cl)ccc2[nH]1", "measured.target": "A498 renal", "GI50": "12.1 µM"}
{"compound": "C#Cc1c(I)n(C2OC(CO[Si](C)(C)C(C)(C)C)C3OC(C)(C)OC32)c(=O)[nH]c1=O (configuration not stated)", "measured.target": "A498 renal", "GI50": "17.1 µM"}
{"compound": "O=c1c2ccccc2c(=O)c2c1[nH]c1c(-c3ccccc3)c(-c3ccccc3)c(=O)c12", "measured.target": "A498 renal", "GI50": "3.12 µM"}
{"compound": "CN(C)CCN1C(=O)c2ccc3c4c(ccc(c24)C1=O)C(=O)N(CCN=C=S)C3=O", "measured.target": "A498 renal", "GI50": "0.0529 µM"}
{"compound": "CC(CO)(CO)NCCCCn1ccc2c1C(=O)c1c(c(O)c3ccccc3c1O)C2=O", "measured.target": "A498 renal", "GI50": "22.3 µM"}
{"compound": "CCSc1nc(SCC)c2cn[nH]c2n1", "measured.target": "A498 renal", "GI50": "2.47 µM"}
{"compound": "Cc1ncc(CCCN(C)C)cc1Nc1ncc2c(n1)-c1ccc(C(F)(F)F)cc1NC(=S)C2", "measured.target": "A498 renal", "GI50": "0.0219 µM"}
{"compound": "CC1=C(C(=O)Nc2ccc(F)c(Cl)c2)C(c2cccc(O)c2)NC(=O)N1 (configuration not stated)", "measured.target": "A498 renal", "GI50": "5.04 µM"}
{"compound": "CC1(C)[C@@H](OC(N)=O)[C@H]2O[C@H]2[C@]2(C=O)[C@H]3CC[C@]4(C)[C@@H](c5ccc(=O)oc5)[C@@H](Cl)C[C@]4(O)C3=CC[C@@H]12", "measured.target": "A498 renal", "GI50": "0.00683 µM"}
{"compound": "CN(C)c1cc[c]([Sn]([c]2ccc(N(C)C)cc2)([c]2ccc(N(C)C)cc2)[c]2ccc(N(C)C)cc2)cc1", "measured.target": "A498 renal", "GI50": "7.47 µM"}
{"compound": "C[C@H](O)C(=O)N1CCC(CCn2c(Sc3cc4c(cc3Br)OCO4)nc3c(N)ncnc32)CC1", "measured.target": "A498 renal", "GI50": "3.35 µM"}
{"compound": "C1CCC([PH+](C2CCCCC2)C2CCCCC2[PH+](C2CCCCC2)C2CCCCC2)CC1.O=C(C1[CH-]CCCC1)C1CCCC[N-]1.[Au] (configuration not stated)", "measured.target": "A498 renal", "GI50": "0.0757 µM"}

This collection of values is drawn from PubChem BioAssay (NCI).
